Origin of measurements: patent US20230263822A1

- settings: rat, in vivo, sc, 50 mg/kg
e = 2'-O-(2-methoxyethyl) (MOE); d = 2'-deoxy (DNA)
Field: Total urine protein. Provide a value for each of the substances that follow.
Be sure to follow the number with its unit.

Entry ISIS 416866: MOE gapmer, nucleobases 1275 to 1318 of SEQ ID NO: 1 (Table 8) (antisense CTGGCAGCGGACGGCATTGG; MOE gapmer, wing and gap sizes not given here) — recorded Total urine protein = 486 mg/dL

Per the records, this substance ( ISIS 413481: 5-10-5 MOE gapmer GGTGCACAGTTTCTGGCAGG (sugars from the 5' end e5 d10 e5, backbone and methylation of C not given here) ) has Total urine protein equal to 148 mg/dL

Record ISIS 416852: MOE gapmer, nucleobases 1275 to 1318 of SEQ ID NO: 1 (Table 8) (antisense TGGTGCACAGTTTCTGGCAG; MOE gapmer, wing and gap sizes not given here) . Reported Total urine protein: 189 mg/dL

Measured Total urine protein, ISIS 412224: 5-10-5 MOE gapmer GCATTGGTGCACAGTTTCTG (sugars from the 5' end e5 d10 e5, backbone and methylation of C not given here) : 171 mg/dL

Given item ISIS 416859: MOE gapmer, nucleobases 1275 to 1318 of SEQ ID NO: 1 (Table 8) (antisense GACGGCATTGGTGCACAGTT; MOE gapmer, wing and gap sizes not given here) , the value recorded as its Total urine protein is 144 mg/dL

// sample ISIS 413482: 5-10-5 MOE gapmer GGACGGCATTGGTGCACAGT (sugars from the 5' end e5 d10 e5, backbone and methylation of C not given here) , its Total urine protein was 157 mg/dL

// recorded Total urine protein for ISIS 416867: MOE gapmer, nucleobases 1275 to 1318 of SEQ ID NO: 1 (Table 8) (antisense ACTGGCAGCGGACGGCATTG; MOE gapmer, wing and gap sizes not given here) : 217 mg/dL

Note to self: Total urine protein recorded for ISIS 416860: MOE gapmer, nucleobases 1275 to 1318 of SEQ ID NO: 1 (Table 8) (antisense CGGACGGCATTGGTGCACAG; MOE gapmer, wing and gap sizes not given here) was 242 mg/dL

Value of measured Total urine protein for the entry ISIS 416856: MOE gapmer, nucleobases 1275 to 1318 of SEQ ID NO: 1 (Table 8) (antisense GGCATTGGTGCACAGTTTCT; MOE gapmer, wing and gap sizes not given here) : 128 mg/dL

====

- assay_explanation: Hematology assays in cynomolgus monkeys (Example 45)
- Type: in vivo
- settings: day 85
So I've got a bunch of substances here, and I need their reticulocytes values.
// return numeric value only (unit: %, not printed)

ISIS 416858: MOE gapmer, nucleobases 1275 to 1318 of SEQ ID NO: 1 (Table 8) (antisense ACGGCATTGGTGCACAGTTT; MOE gapmer, wing and gap sizes not given here) has a reported reticulocytes of 1.3

What the record says about ISIS 417002: MOE gapmer, nucleobases 1275 to 1318 of SEQ ID NO: 1 (Table 8) (antisense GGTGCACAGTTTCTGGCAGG; MOE gapmer, wing and gap sizes not given here) : reticulocytes is 1.4

# reticulocytes (substance: ISIS 416850: MOE gapmer, nucleobases 1275 to 1318 of SEQ ID NO: 1 (Table 8) (antisense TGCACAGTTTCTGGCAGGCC; MOE gapmer, wing and gap sizes not given here) ) is 2.3

Value of reticulocytes reported for the substance ISIS 416864: MOE gapmer, nucleobases 1275 to 1318 of SEQ ID NO: 1 (Table 8) (antisense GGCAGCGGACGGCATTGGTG; MOE gapmer, wing and gap sizes not given here) is 1.5

Recorded reticulocytes (substance ISIS 416838: MOE gapmer, nucleobases 1018 to 1042 of SEQ ID NO: 1 (Table 6) (antisense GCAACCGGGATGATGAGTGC; MOE gapmer, wing and gap sizes not given here) ): 1.5

====

- assay_explanation: Body and organ weights of cynomolgus monkeys (Example 46)
- Format: in vivo
- settings: day 43
Strand notation (5' to 3'): a small letter for the sugar, then the base; units joined by * are phosphorothioate-linked, units joined directly phosphodiester-linked; [ ] holds rarer units or linkages, { } end groups; capitals alone tell only the bases. e = 2'-O-(2-methoxyethyl) (MOE); [5mC] = 5-methylcytosine; d = 2'-deoxy (DNA)
Exercise: for every item that follows, state its recorded body weight.
The reply should consist of the numeric value with the unit placed after it.

// sample ISIS 416850: MOE gapmer, nucleobases 1275 to 1318 of SEQ ID NO: 1 (Table 8) (antisense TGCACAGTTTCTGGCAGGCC; MOE gapmer, wing and gap sizes not given here) , its body weight was 2186 g

# substance ISIS 449710: 3-8-3, 4-8-4, 2-10-2, 3-10-3 or 4-10-4 MOE microwalk gapmer (Table 46) (antisense e[5mC]*eA*e[5mC]*dA*dG*dT*dT*dT*d[5mC]*dT*dG*dG*d[5mC]*eA*eG*eG) ; its body weight = 2227 g

The substance listed as ISIS 449707: 3-8-3, 4-8-4, 2-10-2, 3-10-3 or 4-10-4 MOE microwalk gapmer (Table 46) (antisense e[5mC]*eA*e[5mC]*eA*dG*dT*dT*dT*d[5mC]*dT*dG*dG*e[5mC]*eA*eG*eG) has a reported body weight of 2197 g

Record summary for ISIS 445531: 5-8-5 or 6-8-6 MOE microwalk gapmer (Table 44) (antisense eG*eG*e[5mC]*eA*eT*dT*dG*dG*dT*dG*d[5mC]*dA*d[5mC]*eA*eG*eT*eT*eT) : reported body weight = 2233 g

====

- System: human Factor 11 mRNA
- assay_explanation: Dose-dependent inhibition of human Factor 11 in HepG2 cells, lipofectin 9.375-75 nM (Example 4)
- Format: cell-based
- settings: 37.5 nM, relative to untreated control cells
Strand notation (5' to 3'): a small letter for the sugar, then the base; units joined by * are phosphorothioate-linked, units joined directly phosphodiester-linked; [ ] holds rarer units or linkages, { } end groups; capitals alone tell only the bases. e = 2'-O-(2-methoxyethyl) (MOE); [5mC] = 5-methylcytosine; d = 2'-deoxy (DNA)
reported_endpoint: percent inhibition of Factor 11 at 37.5 nM
Please give the number followed by its unit.

Short answer for 416923 (antisense eT*eG*e[5mC]*dA*d[5mC]*dA*dG*dT*dT*dT*d[5mC]*dT*dG*dG*d[5mC]*dA*dG*eG*e[5mC]*e[5mC]) [compound 416923] : percent inhibition of Factor 11 at 37.5 nM was 60%

Looking up 417002 (antisense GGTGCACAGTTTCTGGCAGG; 2-13-5 gapmer chemistry, further chemistry not given here) [compound 417002] , I see its percent inhibition of Factor 11 at 37.5 nM listed as 67%

Record 416838 (antisense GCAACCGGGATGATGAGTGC; 5-10-5 gapmer, further chemistry not given here) [compound 416838] , field percent inhibition of Factor 11 at 37.5 nM: 64%

The measured percent inhibition of Factor 11 at 37.5 nM associated with 416924 (antisense eG*eT*eG*d[5mC]*dA*d[5mC]*dA*dG*dT*dT*dT*d[5mC]*dT*dG*dG*d[5mC]*dA*eG*eG*e[5mC]) [compound 416924] reads 56%

Given item 416895 (antisense eT*eA*eT*dG*d[5mC]*d[5mC]*d[5mC]*dT*dT*d[5mC]*dA*dT*dG*dT*d[5mC]*dT*dA*eG*eG*eT) [compound 416895] , the value recorded as its percent inhibition of Factor 11 at 37.5 nM is 66%

Item: 416945 (antisense eA*eA*dT*dG*dT*d[5mC]*dT*dT*dT*dG*dT*dT*dG*d[5mC]*dA*eA*eG*e[5mC]*eG*e[5mC]) [compound 416945] | percent inhibition of Factor 11 at 37.5 nM: 62%

Short answer for 416908 (antisense eG*e[5mC]*eA*dA*d[5mC]*d[5mC]*dG*dG*dG*dA*dT*dG*dA*dT*dG*dA*dG*eT*eG*e[5mC]) [compound 416908] : percent inhibition of Factor 11 at 37.5 nM was 67%

Given item 416896 (antisense eT*eT*eA*dT*dG*d[5mC]*d[5mC]*d[5mC]*dT*dT*d[5mC]*dA*dT*dG*dT*d[5mC]*dT*eA*eG*eG) [compound 416896] , the value recorded as its percent inhibition of Factor 11 at 37.5 nM is 57%

percent inhibition of Factor 11 at 37.5 nM measured on 416922 (antisense eG*e[5mC]*eA*d[5mC]*dA*dG*dT*dT*dT*d[5mC]*dT*dG*dG*d[5mC]*dA*dG*dG*e[5mC]*e[5mC]*eT) [compound 416922] = 49%

Looking up 412206 (antisense e[5mC]*e[5mC]*eG*eT*eG*d[5mC]*dA*dT*d[5mC]*dT*dT*dT*d[5mC]*dT*dT*eG*eG*e[5mC]*eA*eT) [compound 412206] , I found its percent inhibition of Factor 11 at 37.5 nM recorded as 69%

# percent inhibition of Factor 11 at 37.5 nM (substance: 417000 (antisense eT*eG*d[5mC]*dA*d[5mC]*dA*dG*dT*dT*dT*d[5mC]*dT*dG*dG*d[5mC]*eA*eG*eG*e[5mC]*e[5mC]) [compound 417000] ) is 58%

For record 416850 (antisense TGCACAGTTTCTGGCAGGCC; 5-10-5 gapmer, further chemistry not given here) [compound 416850] the listed percent inhibition of Factor 11 at 37.5 nM is 67%

Kindly note the recorded percent inhibition of Factor 11 at 37.5 nM for 416856 (antisense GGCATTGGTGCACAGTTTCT; 5-10-5 gapmer, further chemistry not given here) [compound 416856] , which is 58%

Measured percent inhibition of Factor 11 at 37.5 nM of 416826 (antisense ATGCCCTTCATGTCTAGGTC; 5-10-5 gapmer, further chemistry not given here) [compound 416826] : 58%

The substance listed as 416973 (antisense eT*eT*dA*dT*dG*d[5mC]*d[5mC]*d[5mC]*dT*dT*d[5mC]*dA*dT*dG*dT*e[5mC]*eT*eA*eG*eG) [compound 416973] has a reported percent inhibition of Factor 11 at 37.5 nM of 85%

Notebook: 416931 (antisense eG*eG*e[5mC]*dA*dT*dT*dG*dG*dT*dG*d[5mC]*dA*d[5mC]*dA*dG*dT*dT*eT*e[5mC]*eT) [compound 416931] , percent inhibition of Factor 11 at 37.5 nM read as 57%

Recorded result, 416999 (antisense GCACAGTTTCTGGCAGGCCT; 2-13-5 gapmer chemistry, further chemistry not given here) [compound 416999] , percent inhibition of Factor 11 at 37.5 nM: 55%

// sample 416926 (antisense eT*eG*eG*dT*dG*d[5mC]*dA*d[5mC]*dA*dG*dT*dT*dT*d[5mC]*dT*dG*dG*e[5mC]*eA*eG) [compound 416926] , its percent inhibition of Factor 11 at 37.5 nM was 63%

Briefly, percent inhibition of Factor 11 at 37.5 nM measured for 413476 (antisense eT*eT*eG*eA*eG*dA*dT*dT*d[5mC]*dT*dT*dT*dG*dG*dG*e[5mC]*e[5mC]*eA*eT*eT) [compound 413476] : 62%

Reported percent inhibition of Factor 11 at 37.5 nM for 416864 (antisense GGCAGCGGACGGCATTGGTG; 5-10-5 gapmer, further chemistry not given here) [compound 416864] was 62%

For reference, reported percent inhibition of Factor 11 at 37.5 nM for 416941 (antisense eG*eG*e[5mC]*dA*dG*d[5mC]*dG*dG*dA*d[5mC]*dG*dG*d[5mC]*dA*dT*dT*dG*eG*eT*eG) [compound 416941] stands at 63%

Noted for 416989 (antisense eG*eA*dG*dA*dT*dT*d[5mC]*dT*dT*dT*dG*dG*dG*d[5mC]*d[5mC]*eA*eT*eT*e[5mC]*e[5mC]) [compound 416989] : its percent inhibition of Factor 11 at 37.5 nM reads 62%
